Target: human ether-à-go-go-related gene (hERG) potassium channel (human, UniProt Q12809)
Sequence (Q12809 whole entry, looked up): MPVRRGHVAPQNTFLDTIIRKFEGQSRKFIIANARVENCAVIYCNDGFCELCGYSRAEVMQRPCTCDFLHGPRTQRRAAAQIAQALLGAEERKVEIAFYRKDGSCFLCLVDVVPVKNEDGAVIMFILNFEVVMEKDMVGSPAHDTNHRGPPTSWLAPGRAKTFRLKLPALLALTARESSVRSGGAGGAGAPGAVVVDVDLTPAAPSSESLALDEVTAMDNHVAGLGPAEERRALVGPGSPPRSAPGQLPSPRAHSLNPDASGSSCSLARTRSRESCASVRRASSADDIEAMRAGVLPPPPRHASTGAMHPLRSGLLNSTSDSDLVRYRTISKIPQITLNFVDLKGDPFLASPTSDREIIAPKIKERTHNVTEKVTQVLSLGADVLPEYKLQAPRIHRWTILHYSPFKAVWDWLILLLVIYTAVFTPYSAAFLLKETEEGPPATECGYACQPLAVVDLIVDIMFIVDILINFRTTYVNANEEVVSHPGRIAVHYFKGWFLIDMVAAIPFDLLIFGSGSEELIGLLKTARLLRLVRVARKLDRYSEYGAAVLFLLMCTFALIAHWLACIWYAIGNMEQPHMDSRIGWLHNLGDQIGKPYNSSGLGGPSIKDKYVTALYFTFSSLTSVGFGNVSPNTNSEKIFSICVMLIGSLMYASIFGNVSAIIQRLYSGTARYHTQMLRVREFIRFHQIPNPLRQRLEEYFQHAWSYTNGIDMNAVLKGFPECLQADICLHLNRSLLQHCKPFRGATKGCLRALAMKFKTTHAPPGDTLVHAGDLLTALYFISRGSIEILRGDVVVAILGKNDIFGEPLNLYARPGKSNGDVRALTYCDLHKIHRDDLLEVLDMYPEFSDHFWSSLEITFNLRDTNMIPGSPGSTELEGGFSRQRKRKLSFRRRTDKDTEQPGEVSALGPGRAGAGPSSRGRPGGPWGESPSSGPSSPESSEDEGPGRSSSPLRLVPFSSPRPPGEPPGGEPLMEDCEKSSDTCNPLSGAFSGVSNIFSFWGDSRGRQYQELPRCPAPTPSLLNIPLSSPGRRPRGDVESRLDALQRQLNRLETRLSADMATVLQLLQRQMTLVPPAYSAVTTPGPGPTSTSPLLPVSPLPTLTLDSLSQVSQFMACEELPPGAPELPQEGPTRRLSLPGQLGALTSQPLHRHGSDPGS
Experiment: primary screen, population patch clamp on CHO cells stably expressing hERG; higher = less effect of the substance
Among all 310,000 compounds or so, about 14,000 (4.5%) showed an effect of 50% or more. The effect is printed as a negative number. What follows is part of a selection rich in strong results, with near analogues and random picks from the rest.
observed.property: hERG current change (%, negative = inhibition) at 10uM (%)
Reply with just the number (in %).

Please review the entries below; each comes with its answer.
test.smiles	system.name	reading.unit	test.result
COc1ccc(NC(=O)N2CCN(S(=O)(=O)c3ccc(F)cc3)CC2)c(OC)c1	human ether-à-go-go-related gene (hERG) potassium channel (human, UniProt Q12809)	%	-6.4
CCN(CC)CCNC(=S)Nc1ccc2nc(N3CCN(C)CC3)cc(C)c2c1	human ether-à-go-go-related gene (hERG) potassium channel (human, UniProt Q12809)	%	-1.04
CCN(CC)CCNC(=S)Nc1ccc2nc(N3CCOCC3)cc(C)c2c1	human ether-à-go-go-related gene (hERG) potassium channel (human, UniProt Q12809)	%	11.7
Cc1cc(N2CCN(C)CC2)nc2ccc(NC(=S)NCCCN3CCc4ccccc4C3)cc12	human ether-à-go-go-related gene (hERG) potassium channel (human, UniProt Q12809)	%	-26.5
Cc1cc(N2CCOCC2)nc2ccc(NC(=S)N3CCN(Cc4ccccc4)CC3)cc12	human ether-à-go-go-related gene (hERG) potassium channel (human, UniProt Q12809)	%	-33.6
COc1ccccc1OCC(=O)[O-].[Na+]	human ether-à-go-go-related gene (hERG) potassium channel (human, UniProt Q12809)	%	4.6
Cc1cc(N2CCOCC2)nc2ccc(NC(=S)NCCC(C)C)cc12	human ether-à-go-go-related gene (hERG) potassium channel (human, UniProt Q12809)	%	-64.1
O=C(CN1CCN(S(=O)(=O)c2ccc(Br)cc2)CC1)Nc1ccccc1C(=O)c1ccccc1	human ether-à-go-go-related gene (hERG) potassium channel (human, UniProt Q12809)	%	1.26

Problem: Fill in: hERG current change (%, negative = inhibition) at 10uM of Cc1noc(C(=O)Nc2c(C)nn(Cc3ccccc3)c2C)c1Cl is ___
Solution: 4.71

Problem: Repeat with O=C(CCN1CCN(S(=O)(=O)c2ccc(Br)cc2)CC1)Nc1ccccc1F
Solution: -31.2

----------
Molecular target: human ether-à-go-go-related gene (hERG) potassium channel (human, UniProt Q12809)
Test: primary screen, population patch clamp on CHO cells stably expressing hERG; higher = less effect of the substance
The campaign covered roughly 310,000 compounds. About 14,000 (4.5%) showed an effect of 50% or more. Effects have a minus sign here. For the sample, strong results were picked, then their nearest neighbours and some compounds at random.
Below, each entry is listed with its recorded hERG current change (%, negative = inhibition) at 10uM.
Value expressed in %; do not type the unit.

These solved cases illustrate the format of a correct answer.
compound	reading.unit	test.result
CC1CCCCC1N1CCN(C(=O)c2cccc(F)c2)CC1.O=C(O)C(=O)O (stereo not drawn)	%	-17.5
COc1ccc(-c2nc(CN3CCC(C(=O)N4CCOCC4)CC3)c(C)o2)cc1C	%	-6.98
COc1cc2c(cc1OC)C(c1cc3cc4c(cc3[nH]c1=O)OCO4)N(C(=O)C(C)C)CC2 (stereo not drawn)	%	-4.79
Fc1cccc(Nc2ncnc3c2cnn3-c2ccccc2)c1	%	12.1
COc1ccc(C2C3=C(CC(C)(C)CC3=O)Oc3ncn(Cc4ccco4)c(=N)c32)cc1 (stereo not drawn)	%	-68.3

Problem: What hERG current change (%, negative = inhibition) at 10uM value was documented for this compound, O=c1c2ccccc2nc2c3ccccc3c(NCc3cccnc3)nn12 ?
Solution: -25.5

Problem: Item: Cc1c(NC(=O)c2ccccc2NC(=O)COc2ccccc2)cccc1C(=O)O
Solution: 14.2

Problem: Likewise for COCCN(C(=O)c1csnn1)C(C(=O)NC1CCCC1)c1ccccc1 (stereo not drawn) ?
Solution: 3.23

Problem: // next record CC(C)OCCCNC(=S)N1CCC(C(=O)c2ccc3c(c2)OCCO3)CC1
Solution: -22.9

----------
Target: human ether-à-go-go-related gene (hERG) potassium channel (human);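 note: peak tail current of the secondary pulse compared with the same well before compound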
Assay: primary screen, population patch clamp on CHO cells stably expressing hERG; higher = less effect of the substance
Among all 310,000 compounds or so, about 14,000 (4.5%) showed an effect of 50% or more. Effects have a minus sign here. The entries come from a sample that favours strong results as a whole.
hERG current change (%, negative = inhibition) at 10uM values by entry
State just the number; it will be interpreted in %.

Problem: # get_value(readout='hERG current change (%, negative = inhibition) at 10uM', item= O=[N+]([O-])c1ccc(-n2nncc2-c2ccc(Cl)cc2)cc1 )
Solution: -72.7

Problem: Moving on to the next compound: c1ccc(-c2cnnn2-c2ccccc2)cc1
Solution: 12.7

Problem: And the next one, O=C(O)c1ccc(-n2nncc2-c2ccccc2)cc1 ?
Solution: 8.58

Problem: Further, for CC(C)(C)c1cnnn1-c1ccc([N+](=O)[O-])cc1 ?
Solution: -8.46

Problem: How about O=[N+]([O-])c1ccc(-n2nncc2-c2ccccc2)cc1 ?
Solution: -29.4

Problem: Please give the result for CC(=O)c1ccc(-n2nncc2C)cc1 too.
Solution: 19.8

----------
Molecular target: human ether-à-go-go-related gene (hERG) potassium channel (human, UniProt Q12809);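 note: peak tail current of the secondary pulse compared with the same well before compound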
Assay: primary screen, population patch clamp on CHO cells stably expressing hERG; higher = less effect of the substance
In all, about 310,000 compounds went through this assay and about 14,000 (4.5%) showed an effect of 50% or more. Effects have a minus sign here. The full list was thinned out, with strong results kept by preference.
Lab note: compare hERG current change (%, negative = inhibition) at 10uM against -50%. Equal or greater, write 1. Smaller, write -1.

test.smiles	cat
CCc1ccccc1NC(=O)CN1CCN(C(=O)CNC(=O)c2ccccc2F)CC1	1
CCc1ccccc1NC(=O)CN1CCC(NC(=O)COC)CC1.Cl	1
Cc1cccc(NC(=O)CN2CCN(C(=O)c3ccc(OCc4cn5ccccc5n4)cc3)CC2)c1C	1
CCc1ccccc1NC(=O)CN1CCN(CC(=O)Nc2ccc(-c3ccccc3)cc2)CC1	-1
Cc1cccc(NC(=O)CN2CCN(CC(=O)Nc3ccc(-c4ccccc4)cc3)CC2)c1C	1

Let's switch to this molecule now.
Problem: Check the entry NC(=O)C1(N2CCCCC2)CCN(C(=O)CSc2nc3ccccc3o2)CC1 : does hERG current change (%, negative = inhibition) at 10uM equal or exceed -50%?
Solution: 1

----------
Target: human ether-à-go-go-related gene (hERG) potassium channel (human);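 note: peak tail current of the secondary pulse compared with the same well before compound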
Test: primary screen, population patch clamp on CHO cells stably expressing hERG; higher = less effect of the substance
The campaign covered roughly 310,000 compounds. About 14,000 (4.5%) showed an effect of 50% or more. The effect is printed as a negative number. Shown is part of a subset that was picked to be rich in strong results.
Recorded measurements of hERG current change (%, negative = inhibition) at 10uM, one per entry
Just the number please, in %, no unit attached.

Use these answered entries as a reference point.
molecule	test.result
Cc1cc(OCC(=O)NC2CCN(Cc3ccccc3)CC2)c2c(C)c(C)c(=O)oc2c1	-22.4
CN(C)CC/C=C1/c2ccccc2Sc2c(O)cc(Cl)cc21	-47.5
COc1cccc(Nc2c([N+](=O)[O-])cncc2[N+](=O)[O-])c1	-2.64

Problem: Field: hERG current change (%, negative = inhibition) at 10uM (human ether-à-go-go-related gene (hERG) potassium channel (human)). Entry: Cc1ccc(C(=O)Nc2ccc(SC(F)F)cc2)s1
Solution: 24.4

Problem: Lookup Cc1nn(C)cc1C(C)NC(=O)c1cc(COc2cccc3cnccc23)on1 (centres unmarked)
Solution: 13.9

Problem: Param item: CCCCCC[N+](C)(C)CC/C=C1/c2ccccc2Sc2ccc(Cl)cc21.[Br-]
Solution: -75.2

Problem: Repeat with CCC(C)c1ccc(NC(=O)C/C(C)=N/NC(=O)c2cnccn2)cc1 (centres unmarked)
Solution: -17.2

Problem: Thanks! And O=C(COc1ccc(Br)cc1Cl)NC1CCCCC1 ?
Solution: 9.84

----------
# reported hERG current change (%, negative = inhibition) at 10uM; entries follow
Target: human ether-à-go-go-related gene (hERG) potassium channel (human, UniProt Q12809);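 note: peak tail current of the secondary pulse compared with the same well before compound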
Test: primary screen, population patch clamp on CHO cells stably expressing hERG; higher = less effect of the substance
Out of some 310,000 compounds screened, about 14,000 (4.5%) showed an effect of 50% or more. Effects have a minus sign here. This is one part of a sample in which strong results are shown more often than they occur.
The figure you give is taken to be in %; do not add the unit.

Past entries and their recorded results:
molecule	test.result
N#Cc1ccccc1N1CCN(C(=O)c2ccc(NC(=O)c3ccc(Br)o3)cc2)CC1	-18.9
O=C(O)c1ccc(Cl)c(S(=O)(=O)N2CCCCCC2)c1	-8.34
N#CCC(=O)Nc1ccc(C(=O)N2CCN(c3ccccn3)CC2)cc1	18.4
CC(C)C(=O)N1CCN(c2ccc(NC(=O)c3ccc(Br)o3)cc2)CC1	-0.0806
O=C(Nc1ccc(N2CCN(C(=O)c3ccc(Cl)cc3)CC2)cc1)c1ccc(Br)o1	-75.3
O=C(CCc1nnc2n(Cc3ccc(F)cc3)c(=O)c3ccccc3n12)NCCN1CCOCC1	-20.3
O=C(CCc1nnc2n(Cc3ccccc3)c(=O)c3ccccc3n12)NCCN1CCOCC1	-1.06
Cc1ccccc1NC(=O)CN1C(=O)N/C(=C\c2ccc(N3CCOCC3)c(F)c2)C1=O	10.8

Problem: Entry O=C(Cc1ccccc1)NN1C(=O)C2C3C=CC(C3)C2C1=O (stereo not drawn) has what hERG current change (%, negative = inhibition) at 10uM?
Solution: 12.4
